METHOD_SUMMARY: toxicity in mice: body weight and observations after IP administration
Format: in vivo
ASSAY_CONDITIONS: female mice, 400 mg/kg IP, day 11
ASSAY_METRIC: body weight (g)
Just the number in g, nothing appended.

Please look at this molecule and report its body weight: CC(C)c1ccc(-c2cn3nc(N4CCC(CN5CCN(CCO)CC5)CC4)sc3n2)cc1 [Compound E266] 29

* * *

METHOD_SUMMARY: toxicity in mice: body weight and observations after IP administration
Assay type: in vivo
ASSAY_CONDITIONS: male mice, 400 mg/kg IP, day 7
ASSAY_METRIC: body weight

Fill in body weight for record CC(C)c1ccc(-c2cn3nc(N4CCC(CN5CCN(CCO)CC5)CC4)sc3n2)cc1 [Compound E266] 40.5 g
